- studyTarget: T1, Cyno CD33 ECD-HSA (cynomolgus monkey)
- T1 construct: Cyno CD33 extracellular domain fused to monomeric human serum albumin and a six-histidine tag; also called C33W1
- assayProcedure: ProteOn SPR, mAb captured by anti-human Fc, 1:1 Langmuir fit
endpoint: log10 of kon (log10 of the value in M⁻¹ s⁻¹)
Short version: log10 scale, kon, M⁻¹ s⁻¹.

Worked examples, 4 binders total:
{"binder": "C33B48 (antibody, IgG1, V domains shown, huIgG1 F405L; also called C33F53; C33H80/C33L73) VH: QVQLVQSGSELRKPGASVKVSCKASGYTFTNYAMNWVRQAPGQGLEWMGWINTNTGNPTYAQGFTGRFVFSLDTSVSSAYLQISSLKAEDTAMYYCATDRDRGTDYWGQGTLVTVSS VL: QSALTQPASVSGSPGQSITISCTGTSSDVGDYNYVSWYQQHPGKVPKLMIYDVSNRPSGVSNRFSGSMSGNTASLTISGLQAEDEADYYCSSYSSSSALEVFGGGTKLTVL", "log10 of kon": 6.63}
{"binder": "C33B80 (antibody, IgG1, V domains shown, huIgG1 F405L; also called C33F85; C33H76/C33L39) VH: EVQLLESGGGLVQPGGSLRLSCAASGFTFNYAMSWVRQAPGKGLEWVSAISGSGGSTYYADSVKGRFTISRDISKNTLYLQMNSLRAEDTAVYYCARTYNSGYYDGDFDYWGQGTLVTVSS VL: QSALTQPASVSGSPGQSIPISSTGTSSDDGKNNIVSWYQQHPGKAPKLMIYKDSKRPSGVSNRFSGSKSGNTASLTISGLQADDEADYHCCSYAGASNHVVFGGGTKLTVL", "log10 of kon": 5.69}
{"binder": "C33B72 (antibody, IgG1, V domains shown, huIgG1 F405L; also called C33F77; C33H65/C33L47) VH: QVQLVESGGGVVQPGRSLRLSCAASGFTFSSYGMHWVRQAPGKGLEWVVVISYDGSNKYYADSVKGRFTISRDNSKNTLYLQMNSLRAEDTAVYYCAKDFRDFDWLPPDSTSYHGMDVWGQGTTVTVSS VL: SYELTQPPSVSVSPGQTASITCSGDKLGDKYACWYQQKPGQSPVVVIYQDRKRPSGIPERFSGSNFGNTATLTISGTQAMDEADYYCQAWDSSTVVFGGGTKLTVL", "log10 of kon": 5.96}
{"binder": "C33B89 (antibody, IgG1, V domains shown, huIgG1 F405L; also called C33F94; C33H90/C33L51) VH: QVQLQQSGPGLVKPSQTLSLTCAISGDSVSSNSAAWNWIRQSPSRGLEWLGRTYYRSKWYNDYALSVQSRITINPDTSKNQFSLQLNSVTPEDTAVYYCAREVAVAASFDYWGQGTLVTVSS VL: SYVLTQPPSVSVAPGQTARITCGGNNIGSKSVHWSQQKPGQAPVLVVYDDSDRPSGIPERFSGSNSGNTATLTISRVEAGDEADYYCQVWDSNSDHVVFGGGTKLTVL", "log10 of kon": 5.42}

Lab note: measured log10 of kon of C33B124 (antibody, IgG1, V domains shown, huIgG1 F405L; also called C33F129; C33H73/C33L32) VH: EVQLLESGGGLVQPGGSLRLSCAASRFTFSSYAMTWVRQAPGKGLEWVSTINISGGSTYYADSVKGRFTISRDNSKNTLYLQMNSLRAEDTAVYYCTKGGYSSGPFDYWGQGTLVSVSS VL: SYELTQPPSVSVSPGQTASITCSGDKLGDKYVRWYQQKTGQSPVLVMYQDSKRPSGIRERFYGSNSGNTATPTISGTQAVDEAEYYCQAWDSSTGVVFGGGTKLTVL was 5.67

C33B46 (antibody, IgG1, V domains shown, huIgG1 F405L; also called C33F51; C33H108/C33L74) VH: QVQLVQSGSELKKPGASVKVSCKASGYTFSTYAMNWVRQAPGQGLEWMGWINTNTGNPTYAQGFTGRFVFSLDTSVSTAYLQISSLKAEDTAVYYCARDRDRGTDYWGQGTLVTVSS VL: QSALTQPASVSGSPGQSITISCTGTSSDVGDDNYVSWYQQHPGKAPKLMIYDVSNRPSGVSNRFSGSKSGNTASLTISGLQSEDEADYYCSSYSSSTTLEVFGGGTKLTVL has a reported log10 of kon of 6.47

Notebook: C33B101 (antibody, V domains shown, huIgG1 F405L; 260 is used; also called C33F106; C33H69/C4LL152) VH: QLQLQESGPGLVKPSETLSLTCTVSGGSISSSSYYWGWIRQPPGKGLDWIGSINYSGSTYYNPSLKSRVTISVDTSKIQFSLKLRSVTAADTAVYYCARLDGYESPFDYWGQGTLVTVSS VL: DIQMTQSPSSVSASVGDRVTITCRASQGISSWLAWYQQKPGKAPKLLIYAASSLQSGVPSRFSGSGSGTDFTLTISSLQPEDFATYYCQQANSFPFTFGPGTKVDIK , log10 of kon read as 5.35
